- System: bacterial reverse mutation
- Test Summary: bacterial reverse mutation (Ames) test
- Type: cell-based
- Condition Info: designation from Derek and Ames outcome
- Protocol: The starting materials, reagents, intermediates, and process impurities generated in the manufacturing process for migalastat hydrochloride were assessed for their potential genotoxicity using in silico (Derek for Windows v13 Lhasa Ltd) screening software. The chemical structures which were DEREK negative were evaluated using Leadscope (Model Applier and Expert Alerts). […] Where possible, the genotoxicity of these materials was then assessed via the use of the bacterial reverse mutation (Ames) test.
Endpoint: Designated Genotoxin?

[[record]]
molecule = "CC(C)(C)C(=O)OC[C@@H](N=[N+]=[N-])[C@@H]1O[C@@H](OC(=O)C(C)(C)C)[C@H](OC(=O)C(C)(C)C)[C@H]1OC(=O)C(C)(C)C"
value_reported = "No"

[[record]]
molecule = "[N-]=[N+]=N[C@H](CO)[C@@H]1O[C@@H](O)[C@H](O)[C@H]1O"
value_reported = "confirmed as genotoxins"

[[record]]
molecule = "CC(C)(C)C(=O)OC[C@H](N=[N+]=[N-])[C@@H]1O[C@@H](OC(=O)C(C)(C)C)[C@H](OC(=O)C(C)(C)C)[C@H]1OC(=O)C(C)(C)C"
value_reported = "No"

[[record]]
molecule = "CC(C)(C)C(=O)OC[C@@H](OS(=O)(=O)C(F)(F)F)[C@@H]1O[C@@H](OC(=O)C(C)(C)C)[C@H](OC(=O)C(C)(C)C)[C@H]1OC(=O)C(C)(C)C"
value_reported = "designated as genotoxins"

[[record]]
molecule = "CCCl [Ethyl chloride]"
value_reported = "Yes"

[[record]]
molecule = "Cl.O[C@@H]1[C@H](O)[C@@H](O)CN[C@@H]1CCl"
value_reported = "confirmed as genotoxins"

[[record]]
molecule = "[N-]=[N+]=N[C@@H]1CO[C@@](O)(CO)[C@@H](O)[C@H]1O"
value_reported = "confirmed as genotoxins"

[[record]]
molecule = "CC(C)(C)C(=O)OC[C@H](OS(=O)(=O)C(F)(F)F)[C@@H]1O[C@@H](OC(=O)C(C)(C)C)[C@H](OC(=O)C(C)(C)C)[C@H]1OC(=O)C(C)(C)C"
value_reported = "designated as genotoxins"


Reference for the values: patent US12275703B2
